Test: in vitro
Details: human
Mark 1 for CC50 at 3 days under 50 µM, -1 if at or over.

MOLECULE: CCc1cc(C(=O)N2CCc3ccccc3[C@H]2C)nn2cc(-c3ccc4c(c3F)OCC(C(N)=O)=C4)nc12
LABEL_VALUE: -1

MOLECULE: CCc1cc(C(=O)N(CC)C(C)C(C)C)nn2cc(-c3ccc(NC(=O)N4CC[C@@H](O)C4)cc3F)nc12 (stereo partly shown)
LABEL_VALUE: 1

MOLECULE: C[C@@H]1c2ccccc2CCN1C(=O)c1cc(C2CC2)c2nc(-c3ccc(-n4cc(C(N)=O)cn4)cc3F)cn2c1
LABEL_VALUE: 1

MOLECULE: C[C@@H]1c2ccccc2CCN1C(=O)c1cc(-c2ccccc2)c2nc(-c3ccc(N4CC[C@H](C(N)=O)C4)cc3F)cn2c1
LABEL_VALUE: -1

MOLECULE: C[C@@H]1c2ccccc2CCN1C(=O)c1cc(C2CC2)c2nc(-c3ccc(N4CC(C(=O)NS(C)(=O)=O)C4)cc3F)cn2c1
LABEL_VALUE: -1

Q: Threshold test, CC50 at 3 days < 50 µM: C[C@@H]1c2ccccc2CCN1C(=O)c1cc(C2CC2)c2nc(-c3ccc(N)cc3F)cn2c1
Ans: -1

Q: Report whether reported CC50 at 3 days is lower than 50 µM (strictly) for C[C@@H]1c2ccsc2CCN1C(=O)c1cc(-c2cccnc2)c2nc(-c3ccc(N4CC[C@H](C(N)=O)C4)cc3F)cn2c1 (single isomer, unassigned)
Ans: 1

Q: Does the reported CC50 at 3 days of C[C@@H]1c2ccccc2CCN1C(=O)c1cc(C2CC2)c2cc(-c3ccc(NC(=O)N4CC[C@@H](O)C4)cc3F)cn2n1 stay below 50 µM?
Ans: 1

Q: Does this molecule meet the criterion CC50 at 3 days < 50 µM? C[C@@H]1c2ccccc2CCN1C(=O)c1cc(C2CC2)c2nc(-c3ccc(NC(=O)N4CC(O)C4)cc3F)cn2c1
Ans: 1

Q: Does the reported CC50 at 3 days of C[C@@H]1c2ccccc2CCN1C(=O)c1cc(C2CC2)c2nc(-c3ccc(N4CC[C@H](C(N)=O)C4)cc3F)cn2c1 stay below 50 µM?
Ans: -1

Q: Threshold test, CC50 at 3 days < 50 µM: C[C@@H]1c2ccccc2CCN1C(=O)c1cc(C2CC2)c2nc(-c3ccc(C(N)=O)cc3F)cn2c1
Ans: -1

Q: # TODO verify CC50 at 3 days < 50 µM strictly for this molecule: CCc1cc(C(=O)N2CCc3ccccc3[C@H]2C)nn2cc(-c3ccc(NC(=O)N4CC[C@@H](O)C4)cc3F)nc12
Ans: 1
